From: patent US8026218

# System: T1, rat µ opioid receptor (rat, UniProt P33535 1-398)
# T1 construct: whole, on cells; membrane preparations of the transfected cells were used; also called rMOR; MOR
# T1 sequence (P33535 whole entry): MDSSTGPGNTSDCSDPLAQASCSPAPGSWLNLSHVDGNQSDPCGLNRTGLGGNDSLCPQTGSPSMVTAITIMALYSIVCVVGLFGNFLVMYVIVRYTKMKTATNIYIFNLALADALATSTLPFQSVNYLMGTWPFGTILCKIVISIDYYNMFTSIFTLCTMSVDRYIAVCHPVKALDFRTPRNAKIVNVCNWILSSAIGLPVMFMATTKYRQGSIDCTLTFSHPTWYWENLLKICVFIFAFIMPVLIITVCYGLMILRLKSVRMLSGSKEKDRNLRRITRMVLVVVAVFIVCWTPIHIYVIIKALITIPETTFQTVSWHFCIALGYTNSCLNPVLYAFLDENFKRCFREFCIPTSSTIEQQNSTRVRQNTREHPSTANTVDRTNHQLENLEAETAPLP
# Method Summary: competition vs [3H]DAMGO, rMOR cell membranes
Square brackets hold non-standard residues; d marks the D form. Ends that are not written are not given here. * marks the point of attachment. OBzl(3,5-(CF3)2) = FC(F)(F)c1cc(CO*)cc(C(F)(F)F)c1
Measured Parameter: Ki (nM)
Lab book: enter the figure in nM, no units written.

### Prompt Consider the binder Y[dA]GW-{OBzl(3,5-(CF3)2)} (also called NP44) [Tyr-D-Ala-Gly-Trp-O-3′,5′(CF3)2-Bzl] and give its measured Ki.
### Response 48.5
